Reference for the values: PubChem BioAssay (NCI)

tested on: SF-295 CNS; assay: NCI-60 one-dose screen, 48 h (100 = growth as untreated, 0 = no growth, -100 = all killed); settings: 10 µM unless noted
Compounds without any hit were thinned out: in the full panel of roughly 83,000, 20% have a hit.
Catalogue of growth readings, one per entry.
The response must be a number in % with no trailing unit.

Examples with their reported growth follow.
| compound | measured_metric | test_value |
| --- | --- | --- |
| CC(C)(C)CC(N)=O | growth | 92.5 |
| O=C(CCCCCCCCC(=O)N/N=C\c1ccccc1O)N/N=C\c1ccccc1O | growth | 36 |
| O=C1OCC2=C1C(c1cccc([N+](=O)[O-])c1)c1cc3c(cc1N2CCO)CCC3 (stereo unspecified) | growth | -11.7 |

Request the reported growth associated with `N#Cc1cc(-c2ccnc(Nc3ccc(NC(=O)CCl)cc3)n2)ccc1N1CCCC1` -26.9

Please give the measured growth for this compound: COc1ccc2nc3cc(Cl)ccc3c(NCCCNCCC(C)O)c2c1 (stereo unspecified) -11.9

Item `CCc1c2c(nc3ccc(OCc4ccc(B5OC(C)(C)C(C)(C)O5)cc4)cc13)-c1cc3c(c(=O)n1C2)COC(=O)[C@]3(O)CC` has what recorded growth? 5.44
